Exercise: state measured %Inh for each of the compounds provided.
# Tested on: ERN1;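 also: KINOMEscan kinase panel screen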
# MEASUREMENT_CONDITIONS: concentration: 1 μM,replicates: in singlicate; n = 1
Give just the numeric value; % need not be written.

For the compound shown here, `O=C(NCC1CC1)c1ccc(-c2cc(C(=O)NC3CC3)ccc2F)cc1` , give the reported %Inh.
0

For the compound shown here, `CCn1c(-c2nonc2N)nc2cncc(CNC3CCNCC3)c21.Cl` , give the reported %Inh.
2

For the compound shown here, `CCN1CCN(CCCC(=O)Nc2n[nH]c3nc(-c4ccc(O)cc4)c(Br)cc23)CC1` , give the reported %Inh.
0

For the compound shown here, `O=C(Nc1n[nH]c2cc(-c3ccco3)ccc12)C1CC1` , give the reported %Inh.
9

For the compound shown here, N#Cc1cccc(C(=O)NC2CCN(c3ccnc(Nc4ccc(F)cc4)n3)C2)c1 (stereo not drawn) , give the reported %Inh.
0

For the compound shown here, `O=C(Nc1cccc(Oc2ccc3nccn3n2)c1)Nc1cccc(C(F)(F)F)c1` , give the reported %Inh.
6

For the compound shown here, `Cc1cccc(-c2nc(Nc3ccncc3)c3sccc3n2)n1` , give the reported %Inh.
32

For the compound shown here, `COC(=O)Nc1nc2cc(Oc3ccc(NC(=O)Nc4cc(C(F)(F)F)ccc4Cl)cc3)ccc2[nH]1.Cl` , give the reported %Inh.
0

For the compound shown here, `CCCC(=O)Nc1n[nH]c2ncccc12` , give the reported %Inh.
0
